Origin of the recorded values: paper PMC11480844

B1: H2-Kb / G6 (parent)
chain 1: AQSVTQPDARVTVSEGASLQLRCKYSYFGTPYLFWYVQYPRQGLQLLLKYYPGDPVVQGVNGFEAEFSKSNSSFHLRKASVHWSDWAVYFCAVTPGGSNAKLTFGKGTKLSVKS
chain 2: NSGVVQSPRYIIKGKGERSILKCIPISGHLSVAWYQQTQGQELKFFIQHYDKMERDKGNLPSRFSVQQFDDYHSEMNMSALELEDSAVYFCASSRQGGDNNQAPLFGEGTRLSVL
chain 3: not shown
chain 4: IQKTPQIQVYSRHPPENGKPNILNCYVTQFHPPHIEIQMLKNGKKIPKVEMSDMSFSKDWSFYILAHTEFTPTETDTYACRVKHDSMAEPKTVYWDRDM
chain 5: SIINFEKL

# Variants of: B1
# Assay protocol: % of reporter cells activated (NFAT-GFP), raw; also: test concentration or dose not given here
# Condition info: with G6; scale: % of reporter cells activated
Readout label: ratio to parent

> print(dat)
      mutations  reported.measurement
 1  chain 5 K7W                 0.963
 2  chain 5 N4Q                 0.128
 3  chain 5 S1E                 0.239
 4  chain 5 S1A                  0.65
 5  chain 5 I3C                 0.292
 6  chain 5 K7A                   1.4
 7  chain 5 S1L                  3.02
 8  chain 5 F5Y                 0.576
 9  chain 5 F5A                 0.383
10  chain 5 L8V                  0.56
11  chain 5 F5I                 0.263
12  chain 5 E6P                 0.189
13  chain 5 S1I                 0.909
14  chain 5 I2T                 0.305
15  chain 5 I2Y                 0.284
16  chain 5 I3E                 0.395
17  chain 5 K7T                  0.16
18  chain 5 I3T                 0.284
19  chain 5 I2G                 0.288
20  chain 5 K7I                 0.358
21  chain 5 I3G                 0.226
22  chain 5 S1M                 0.284
23  chain 5 I3K                 0.276
24  chain 5 I2H                 0.259
25  chain 5 K7N                 0.412
26  chain 5 I2V                 0.292
27  chain 5 S1C                 0.502
28  chain 5 K7H                 0.292
29  chain 5 F5C                 0.609
30  chain 5 N4Y                  0.14
31  chain 5 E6L                 0.193
32  chain 5 E6F                 0.914
33  chain 5 S1Q                  0.42
34  chain 5 E6T                 0.362
35  chain 5 K7G                  6.68
36  chain 5 E6V                 0.222
37  chain 5 S1W                 0.362
38  chain 5 E6K                 0.226
39  chain 5 S1T                 0.222
40  chain 5 I3M                 0.465
41  chain 5 I2M                 0.214
42  chain 5 I2E                 0.453
43  chain 5 N4D                 0.267
44  chain 5 I3F                 0.523
45  chain 5 L8G                 0.457
46  chain 5 L8C                 0.251
47  chain 5 F5M                  1.34
48  chain 5 F5G                 0.198
49  chain 5 I3L                 0.926
50  chain 5 F5T                 0.177
51  chain 5 N4E                 0.177
52  chain 5 L8T                 0.354
53  chain 5 I2R                  0.16
54  chain 5 K7Y                 0.235
55  chain 5 L8A                 0.206
56  chain 5 I2A                 0.305
57  chain 5 N4V                 0.193
58  chain 5 L8M                 0.267
